# relative viability per record follows
Test system: COR-L23
Test: relative viability (nuclei count vs DMSO), 5 days (fraction); higher = more cells survive
Conditions: first compound 0.005 µM
API note: the answer field is a bare number with no unit suffix.

Nc1ccn([C@@H]2O[C@H](CO)[C@@H](O)[C@@H]2O)c(=O)n1 [Cytarabine] + N=C(N)NC(=N)NCCc1ccccc1 [Phenformin] (partner 250 µM); 0.328
Nc1ccn([C@@H]2O[C@H](CO)[C@@H](O)[C@@H]2O)c(=O)n1 [Cytarabine] + CCNC(=O)c1noc(-c2cc(C(C)C)c(O)cc2O)c1-c1ccc(CN2CCOCC2)cc1 [Luminespib] (partner 0.01 µM); 0.481

Field: next molecule
Given the molecule Nc1ccn([C@@H]2O[C@H](CO)[C@@H](O)[C@@H]2O)c(=O)n1 [Cytarabine] + O=C(c1cc(Cc2n[nH]c(=O)c3ccccc23)ccc1F)N1CCN(C(=O)C2CC2)CC1 [Olaparib] (partner 8 µM) , what is its reported relative viability? 0.305

###

Measured relative viability, listed per entry for reference.
Tested on: LC-2-ad
Experiment: relative viability (nuclei count vs DMSO), 5 days (fraction); higher = more cells survive
Conditions: first compound 0.002 µM
Write the number on its own, no unit after it.

Field: example entries. Status: answers known.
CC(=O)O[C@@]12CO[C@@H]1C[C@H](O)[C@@]1(C)C(=O)[C@H](O)C3=C(C)[C@@H](OC(=O)[C@H](O)[C@@H](NC(=O)OC(C)(C)C)c4ccccc4)C[C@@](O)([C@@H](OC(=O)c4ccccc4)[C@H]21)C3(C)C [Docetaxel] + Cc1cc(Nc2cc(N3CCN(C)CC3)nc(Sc3ccc(NC(=O)C4CC4)cc3)n2)n[nH]1 [Tozasertib] (partner 0.1 µM); 0.302
CC(=O)O[C@@]12CO[C@@H]1C[C@H](O)[C@@]1(C)C(=O)[C@H](O)C3=C(C)[C@@H](OC(=O)[C@H](O)[C@@H](NC(=O)OC(C)(C)C)c4ccccc4)C[C@@](O)([C@@H](OC(=O)c4ccccc4)[C@H]21)C3(C)C [Docetaxel] + O=C(CCCCCCC(=O)Nc1ccccc1)NO [Vorinostat] (partner 1 µM); 0.209

Next, consider the following compound.
I would be grateful if you could share the reported relative viability for CC(=O)O[C@@]12CO[C@@H]1C[C@H](O)[C@@]1(C)C(=O)[C@H](O)C3=C(C)[C@@H](OC(=O)[C@H](O)[C@@H](NC(=O)OC(C)(C)C)c4ccccc4)C[C@@](O)([C@@H](OC(=O)c4ccccc4)[C@H]21)C3(C)C [Docetaxel] + CS(=O)(=O)CCNCc1ccc(-c2ccc3ncnc(Nc4ccc(OCc5cccc(F)c5)c(Cl)c4)c3c2)o1 [Lapatinib] (partner 2 µM) . 0.14

###

System: SK-LU-1
Test: relative viability (nuclei count vs DMSO), 5 days (fraction); higher = more cells survive
Conditions: first compound 0.02 µM
Measured metric: relative viability
Could you keep your reply to the number by itself?

What measured relative viability goes with CC(=O)O[C@@]12CO[C@@H]1C[C@H](O)[C@@]1(C)C(=O)[C@H](O)C3=C(C)[C@@H](OC(=O)[C@H](O)[C@@H](NC(=O)OC(C)(C)C)c4ccccc4)C[C@@](O)([C@@H](OC(=O)c4ccccc4)[C@H]21)C3(C)C [Docetaxel] + CC1(C)CCC(c2ccc(Cl)cc2)=C(CN2CCN(c3ccc(C(=O)NS(=O)(=O)c4ccc(N[C@H](CCN5CCOCC5)CSc5ccccc5)c(S(=O)(=O)C(F)(F)F)c4)cc3)CC2)C1 [Navitoclax] (partner 0.5 µM) ? 0.112

Quick one: relative viability of CC(=O)O[C@@]12CO[C@@H]1C[C@H](O)[C@@]1(C)C(=O)[C@H](O)C3=C(C)[C@@H](OC(=O)[C@H](O)[C@@H](NC(=O)OC(C)(C)C)c4ccccc4)C[C@@](O)([C@@H](OC(=O)c4ccccc4)[C@H]21)C3(C)C [Docetaxel] + COc1cc2c(Oc3ccc(NC(=O)C4(C(=O)Nc5ccc(F)cc5)CC4)cc3F)ccnc2cc1OCCCN1CCOCC1 [Foretinib] (partner 0.25 µM) ? 0.196

Need relative viability, item CC(=O)O[C@@]12CO[C@@H]1C[C@H](O)[C@@]1(C)C(=O)[C@H](O)C3=C(C)[C@@H](OC(=O)[C@H](O)[C@@H](NC(=O)OC(C)(C)C)c4ccccc4)C[C@@](O)([C@@H](OC(=O)c4ccccc4)[C@H]21)C3(C)C [Docetaxel] + Cc1nc(NC(=O)N2CCC[C@H]2C(N)=O)sc1-c1ccnc(C(C)(C)C(F)(F)F)c1 [Alpelisib] (partner 2 µM) 0.228

###

Quick reference: relative viability of the listed items.
System: NCI-H1734
Assay: relative viability (nuclei count vs DMSO), 5 days (fraction); higher = more cells survive
Details: first compound 0.0002 µM
Answer field: number only, no words.

CC(=O)O[C@@]12CO[C@@H]1C[C@H](O)[C@@]1(C)C(=O)[C@H](O)C3=C(C)[C@@H](OC(=O)[C@H](O)[C@@H](NC(=O)OC(C)(C)C)c4ccccc4)C[C@@](O)([C@@H](OC(=O)c4ccccc4)[C@H]21)C3(C)C [Docetaxel] + C[C@]1(O)C[C@@H](c2nc(-c3ccc4ccc(-c5ccccc5)nc4c3)c3c(N)nccn32)C1 [Linsitinib] (partner 1 µM); 0.918

Consider the molecule shown here: CC(=O)O[C@@]12CO[C@@H]1C[C@H](O)[C@@]1(C)C(=O)[C@H](O)C3=C(C)[C@@H](OC(=O)[C@H](O)[C@@H](NC(=O)OC(C)(C)C)c4ccccc4)C[C@@](O)([C@@H](OC(=O)c4ccccc4)[C@H]21)C3(C)C [Docetaxel] + Nc1nc2[nH]cc(CCc3ccc(C(=O)N[C@@H](CCC(=O)O)C(=O)O)cc3)c2c(=O)[nH]1 [Pemetrexed] (partner 0.2 µM) What is its recorded relative viability? 0.425

Reported relative viability for CC(=O)O[C@@]12CO[C@@H]1C[C@H](O)[C@@]1(C)C(=O)[C@H](O)C3=C(C)[C@@H](OC(=O)[C@H](O)[C@@H](NC(=O)OC(C)(C)C)c4ccccc4)C[C@@](O)([C@@H](OC(=O)c4ccccc4)[C@H]21)C3(C)C [Docetaxel] + COc1cccc2cc(-c3nc([C@H]4CC[C@H](C(=O)O)CC4)n4ncnc(N)c34)[nH]c12 [OSI-027] (partner 0.5 µM) : what is it? 0.573

###

Property: relative viability; scope: individual compounds
Tested on: HCC-827
Test: relative viability (nuclei count vs DMSO), 5 days (fraction); higher = more cells survive
Conditions: first compound 0.04 µM
Returns: the value as a bare number; no unit string appended.

Here's what some known entries look like.
Cc1sc2c(c1C)C(c1ccc(Cl)cc1)=N[C@@H](CC(=O)OC(C)(C)C)c1nnc(C)n1-2 [JQ1] + C[C@]1(O)C[C@@H](c2nc(-c3ccc4ccc(-c5ccccc5)nc4c3)c3c(N)nccn32)C1 [Linsitinib] (partner 1 µM); 0.921
Cc1sc2c(c1C)C(c1ccc(Cl)cc1)=N[C@@H](CC(=O)OC(C)(C)C)c1nnc(C)n1-2 [JQ1] + CC(=O)c1c(C)c2cnc(Nc3ccc(N4CCNCC4)cn3)nc2n(C2CCCC2)c1=O [Palbociclib] (partner 0.5 µM); 0.528
Cc1sc2c(c1C)C(c1ccc(Cl)cc1)=N[C@@H](CC(=O)OC(C)(C)C)c1nnc(C)n1-2 [JQ1] + Cc1nc(Nc2ncc(C(=O)Nc3c(C)cccc3Cl)s2)cc(N2CCN(CCO)CC2)n1 [Dasatinib] (partner 0.075 µM); 0.371

Could you share what relative viability was measured for Cc1sc2c(c1C)C(c1ccc(Cl)cc1)=N[C@@H](CC(=O)OC(C)(C)C)c1nnc(C)n1-2 [JQ1] + COc1cccc2cc(-c3nc([C@H]4CC[C@H](C(=O)O)CC4)n4ncnc(N)c34)[nH]c12 [OSI-027] (partner 0.5 µM) , tested on HCC-827? 0.704

###

Overview of recorded relative viability for various compounds
System: NCI-H838
Test: relative viability (nuclei count vs DMSO), 5 days (fraction); higher = more cells survive
Conditions: first compound 0.4 µM
The response must contain the number and no unit.

Answered cases to consult:
Cc1sc2c(c1C)C(c1ccc(Cl)cc1)=N[C@@H](CC(=O)OC(C)(C)C)c1nnc(C)n1-2 [JQ1] + CS(=O)(=O)CCNCc1ccc(-c2ccc3ncnc(Nc4ccc(OCc5cccc(F)c5)c(Cl)c4)c3c2)o1 [Lapatinib] (partner 2 µM); 0.454
Cc1sc2c(c1C)C(c1ccc(Cl)cc1)=N[C@@H](CC(=O)OC(C)(C)C)c1nnc(C)n1-2 [JQ1] + CC(=O)Nc1cccc(-n2c(=O)n(C3CC3)c(=O)c3c(Nc4ccc(I)cc4F)n(C)c(=O)c(C)c32)c1 [Trametinib] (partner 0.02 µM); 0.375
Cc1sc2c(c1C)C(c1ccc(Cl)cc1)=N[C@@H](CC(=O)OC(C)(C)C)c1nnc(C)n1-2 [JQ1] + Cc1cc(Nc2cc(N3CCN(C)CC3)nc(Sc3ccc(NC(=O)C4CC4)cc3)n2)n[nH]1 [Tozasertib] (partner 0.1 µM); 0.263

Next, consider the following compound.
Quick one: relative viability for Cc1sc2c(c1C)C(c1ccc(Cl)cc1)=N[C@@H](CC(=O)OC(C)(C)C)c1nnc(C)n1-2 [JQ1] + C[C@@H](Oc1cc(-c2cnn(C3CCNCC3)c2)cnc1N)c1c(Cl)ccc(F)c1Cl [Crizotinib] (partner 1 µM) ? 0.415
